pIC50 overview
molecular target: mTOR (Homo sapiens, UniProt P42345); assay: mTOR enzyme assay (DELFIA format, His6-S6K substrate); type: biochemical; conditions: read-out: mTOR Kinase Median IC50
pIC50: −log10 of the molar value.
QUANTITY: pIC50

INSERT INTO results (smiles_string, recorded_measurement) VALUES
  ('CN(C)C(=O)C1CCN(c2ccnc3c2c(/C=C2\Oc4ccc(NC(=O)Nc5cccnc5)cc4C2=O)cn3C)CC1', 7.98),
  ('CN(C(=O)C1CCN(c2ccnc3c2c(/C=C2\Oc4ccc(NC(=O)Nc5cccnc5)cc4C2=O)cn3C)CC1)c1cccnc1', 7.89),
  ('CN1CCOc2cc(-c3ccnc4c3c(/C=C3\Oc5cccc(O)c5C3=O)cn4C)ccc21', 8.21),
  ('CN1CCN(C2CCN(c3ccnc4c3c(/C=C3\Oc5cccc(O)c5C3=O)cn4C)CC2)CC1', 7.85),
  ('CN(Cc1ccccn1)C(=O)C1CCN(c2ccnc3c2c(/C=C2\Oc4ccc(NC(=O)Nc5cccnc5)cc4C2=O)cn3C)CC1', 8.08);

meta.source: patent US20090298820A1
